procedure-summary: Conversion of Hipp-Arg by purified HCPB mutants, 30 minutes, HPLC (Example 17)
Assay type: biochemical
run-conditions: enzyme 2.5 μg/ml; 0.5 mM substrate; 30 minutes at 37° C.
Method: […] Samples were incubated for 30 minutes at 37° C. The reactions were terminated by the addition of 500 μl of 40% methanol, 60% distilled water, 0.2% trifluoro acetic acid and the amount of hippuric acid generated was quantitated by HPLC as described in Example 6 but using a mobile phase of 20% methanol, 80% 50 mM phosphate buffer, pH 6.5. Hippuric acid was detected at 230 nm. […]
property-measured: Hipp-Arg (% conversion)

QUERY: Give me measured Hipp-Arg (% conversion), please, for this molecule: [G251N,D253R]: HCPB mutant with G251N and D253R, (His)6-c-myc tag (protein, UniProt P15086 111-417, looked up, variant G251N D253R, (His)6-c-myc tag) Carboxypeptidase B: ATGHSYEKYNKWETIEAWTQQVATENPALISRSVIGTTFEGRAIYLLKVGKAGQNKPAIFMDCGFHAREWISPAFCQWFVREAVRTYGREIQVTELLDKLDFYVLPVLNIDGYIYTWTKSRFWRKTRSTHTGSSCIGTDPNRNFDAGWCEIGASRNPCDETYCGPAAESEKETKALADFIRNKLSSIKAYLTIHSYSQMMIYPYSYAYKLGENNAELNALAKATVKELASLHGTKYTYGPGATTIYPAAGNSRDWAYDQGIRYSFTFELRDTGRYGFLLPESQIRATCEETFLAIKYVASYVLEHLY
RESULT: 0%

QUERY: Look up and report measured Hipp-Arg (% conversion) for this entry: [G251N,D253K]: HCPB mutant with G251N and D253K, (His)6-c-myc tag (protein, UniProt P15086 111-417, looked up, variant G251N D253K, (His)6-c-myc tag) Carboxypeptidase B: ATGHSYEKYNKWETIEAWTQQVATENPALISRSVIGTTFEGRAIYLLKVGKAGQNKPAIFMDCGFHAREWISPAFCQWFVREAVRTYGREIQVTELLDKLDFYVLPVLNIDGYIYTWTKSRFWRKTRSTHTGSSCIGTDPNRNFDAGWCEIGASRNPCDETYCGPAAESEKETKALADFIRNKLSSIKAYLTIHSYSQMMIYPYSYAYKLGENNAELNALAKATVKELASLHGTKYTYGPGATTIYPAAGNSKDWAYDQGIRYSFTFELRDTGRYGFLLPESQIRATCEETFLAIKYVASYVLEHLY
RESULT: 0.4%

QUERY: Let me know recorded Hipp-Arg (% conversion) for [G251K, D253R]: HCPB mutant with G251K and D253R (protein, UniProt P15086 111-417, looked up, variant G251K D253R) Carboxypeptidase B: ATGHSYEKYNKWETIEAWTQQVATENPALISRSVIGTTFEGRAIYLLKVGKAGQNKPAIFMDCGFHAREWISPAFCQWFVREAVRTYGREIQVTELLDKLDFYVLPVLNIDGYIYTWTKSRFWRKTRSTHTGSSCIGTDPNRNFDAGWCEIGASRNPCDETYCGPAAESEKETKALADFIRNKLSSIKAYLTIHSYSQMMIYPYSYAYKLGENNAELNALAKATVKELASLHGTKYTYGPGATTIYPAAGKSRDWAYDQGIRYSFTFELRDTGRYGFLLPESQIRATCEETFLAIKYVASYVLEHLY , thanks.
RESULT: 0%
